target: Fibroblast growth factor 2 (Homo sapiens) (UniProt P09038); assay: FGF2 binders on small-molecule microarrays, primary screen, biochemical, small-molecule microarray, 635/667 nm fluorescence (AID 1133); details: small-molecule microarray binding, FGF2, fluorescence 635/667; higher = more signal
Sequence (P09038 whole entry, looked up): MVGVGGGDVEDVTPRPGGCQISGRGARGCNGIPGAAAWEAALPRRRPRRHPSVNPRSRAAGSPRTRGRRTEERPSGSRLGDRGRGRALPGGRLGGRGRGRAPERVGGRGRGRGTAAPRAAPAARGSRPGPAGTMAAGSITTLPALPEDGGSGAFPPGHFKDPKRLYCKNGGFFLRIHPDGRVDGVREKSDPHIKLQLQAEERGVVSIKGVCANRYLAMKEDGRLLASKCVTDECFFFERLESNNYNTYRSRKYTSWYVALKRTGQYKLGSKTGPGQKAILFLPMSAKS
Quick rule for you: composite z-score at 0.8 or higher means criterion met, lower means criterion not met.

MOLECULE	ASSIGNED_CATEGORY
CC1CC/C=C\[C@H]2OC34C=CCN(CCN5CCOCC5)C(=O)[C@H]3N(CCCCCCO)C(=O)[C@@H]4C2C(=O)O1 (stereo partly drawn)	criterion not met
CN(C)CCCNC(=O)[C@@H]1c2ccccc2C(=O)N(C2Cc3ccccc3C2)[C@H]1c1ccc(CO)cc1	criterion not met
C=C(COC)C(=O)CC[C@@H](OC(C)=O)c1ccc(OCCO)cc1	criterion met
O=C1C2C=CC(C(O)C(c3ccccc3)c3ccccc3)N(Nc3ccccc3)C2C(=O)N1c1ccccc1 (stereo not drawn)	criterion not met
COCC1=C([C@H](O)CCc2ccccc2)[C@H](CO)n2c(=O)n(-c3ccccc3)c(=O)n2C1	criterion met
C=C(COC)/C(=C/C[C@H](OC(=O)c1ccncc1)c1cccc(OCCO)c1)c1cnc2ccccc2c1	criterion not met

# input for lookup
Is composite z-score for O=C1N(Cc2ccccc2)c2ccccc2[C@H]2OC(c3ccc(OCCCO)cc3)=N[C@@]12Cc1ccccc1 at or above 0.8?
criterion met

* * *

assay: A549 lung cancer cell viability effects, profiling panel, resazurin fluorescence, 24 h, PK04 Diversity Set (AID 1171); conditions: higher = more signal, called active from +8 up or from −8 down; note: test concentration not given here
Exercise: for every item that follows, state its recorded z-score.
Give bare numbers.

Previously resolved entries follow.
COMPOUND	z-score
COC(=O)c1ccc([C@H](NC(=O)c2ccccc2)[C@]2(C)C[C@H]2C2CCCCC2)cc1	0.768
COc1ccc(C#Cc2ccc3c(c2)[C@]2(C(=O)N3)[C@H](c3ccc(OCCO)cc3)N3[C@H](c4ccccc4)[C@H](c4ccccc4)OC(=O)[C@H]3[C@@H]2C(=O)O)cc1	0.721

Go through the list and state z-score for each entry.
1. C=C(CCCC)C(=O)CC[C@H](OC(C)=O)c1ccccc1OCCO
2. C=CCOC(=O)[C@H]1[C@@H]2C(=O)O[C@@H](c3ccccc3)[C@@H](c3ccccc3)N2[C@@H](c2ccc(OCCOC(=O)[C@H]3C[C@H]4C(=O)NCC(=O)N4[C@H]3c3ccc(O)cc3)cc2)[C@]12C(=O)Nc1ccc(I)cc12
3. COCCOC(=O)N1C(=O)[C@@]2(c3cc(C#CC4(O)CCCCCC4)ccc31)[C@H](C(=O)NC[C@H](O)c1ccccc1)[C@H]1C(=O)O[C@H](c3ccccc3)[C@H](c3ccccc3)N1[C@@H]2c1ccc(O)cc1

1. -1.24
2. 0.144
3. 1.63

Go through the list and state z-score for each entry.
1. C=CCNC(=O)[C@@H]1[C@H]2C(=O)O[C@H](c3ccccc3)[C@H](c3ccccc3)N2[C@H](c2ccc(O)cc2)[C@@]12C(=O)Nc1ccc(C#CC3(O)CCCCCC3)cc12
2. CCCCC(O)C1C=CC2C(=O)NC(=O)C2N1Nc1ccc(Cl)cc1Cl (stereo unspecified)
3. CCCCC(O)C1C=CC2C(=O)N(C)C(=O)C2N1Nc1ccccc1 (stereo unspecified)
4. COc1ccc(NN2C(C(O)c3cc(C(F)(F)F)cc(C(F)(F)F)c3)C=CC3C(=O)N(C4CCCCC4)C(=O)C32)cc1 (stereo unspecified)

[0.0696, -1.99, -0.98, -0.35]

Go through the list and state z-score for each entry.
1. NC(=O)N1C(=O)C2C(C1=O)C1C=C(CCCO)C2C(c2ccc(CN3CCCC3)cc2)N1Cc1cccc(OC(F)(F)F)c1 (stereo unspecified)
2. COCCOC(=O)N1C(=O)[C@@]2(c3cc(C#CCC(C(=O)OC)C(=O)OC)ccc31)[C@H](c1ccc(OCCO)cc1)N1[C@H](c3ccccc3)[C@H](c3ccccc3)OC(=O)[C@H]1[C@@H]2C(=O)N1CCCCCCC1

0.657
0.78
